Attribution: patent US20230293539A1

TEST: PK profile of HBI-2375 in plasma and brain in C57BL/6J mice
Format: in vivo
CONDITIONS USED: female, C57BL/6J, mouse, plasma, po, 80 mg/kg, C57BL/6J mice, 7-day repeat PO 80 mg/kg
OBSERVABLE: AUC(0-t) (ng·h/mL)
// return numeric value only (unit: ng·h/mL, not printed)

What the record says about Cc1c(F)c(N)cc(C(=O)Nc2cc(-n3cc(C(=O)N4CCN(C)CC4)nn3)c(F)cc2N2C[C@@H](C)N(C)[C@@H](C)C2)c1Cl : AUC(0-t) is 19500

---

ASSAYED SYSTEM: TEAD1 (Homo sapiens, UniProt P28347)
Sequence (P28347 whole entry, species assumed): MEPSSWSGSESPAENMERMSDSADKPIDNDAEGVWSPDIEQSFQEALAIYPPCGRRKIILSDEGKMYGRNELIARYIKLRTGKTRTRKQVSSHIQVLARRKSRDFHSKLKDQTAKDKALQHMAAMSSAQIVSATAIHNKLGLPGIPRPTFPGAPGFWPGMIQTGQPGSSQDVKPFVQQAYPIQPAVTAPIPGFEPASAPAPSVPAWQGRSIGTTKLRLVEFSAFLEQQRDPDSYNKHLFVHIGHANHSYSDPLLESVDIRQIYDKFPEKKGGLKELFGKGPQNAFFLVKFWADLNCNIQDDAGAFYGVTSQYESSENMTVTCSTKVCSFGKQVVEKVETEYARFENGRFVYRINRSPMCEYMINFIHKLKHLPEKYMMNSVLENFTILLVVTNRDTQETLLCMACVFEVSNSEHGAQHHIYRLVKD
OBSERVABLE: IC50

IC50 for TEAD1 (Homo sapiens, UniProt P28347) with input Cc1c(F)c(N)cc(C(=O)Nc2cc(-n3cc(C(=O)N4CCN(C)CC4)nn3)c(F)cc2N2C[C@@H](C)N(C)[C@@H](C)C2)c1Cl equals > 1000 nM

---

TEST: PK profile of HBI-2375 in plasma, brain and CSF in SD rats
Assay type: in vivo
CONDITIONS USED: female, Sprague-Dawley, rat, CSF/plasma, po, 40 mg/kg, SD rats, 40 mg/kg PO, CSF/plasma, female; read-out: AUClast Ratio Tissue/Plasma
OBSERVABLE: Kp
Field format: numeric only.

What the record says about Cc1c(F)c(N)cc(C(=O)Nc2cc(-n3cc(C(=O)N4CCN(C)CC4)nn3)c(F)cc2N2C[C@@H](C)N(C)[C@@H](C)C2)c1Cl : Kp is 0.0338

---

ASSAYED SYSTEM: TCPTP (Homo sapiens, UniProt P17706)
Sequence (P17706 whole entry, species assumed): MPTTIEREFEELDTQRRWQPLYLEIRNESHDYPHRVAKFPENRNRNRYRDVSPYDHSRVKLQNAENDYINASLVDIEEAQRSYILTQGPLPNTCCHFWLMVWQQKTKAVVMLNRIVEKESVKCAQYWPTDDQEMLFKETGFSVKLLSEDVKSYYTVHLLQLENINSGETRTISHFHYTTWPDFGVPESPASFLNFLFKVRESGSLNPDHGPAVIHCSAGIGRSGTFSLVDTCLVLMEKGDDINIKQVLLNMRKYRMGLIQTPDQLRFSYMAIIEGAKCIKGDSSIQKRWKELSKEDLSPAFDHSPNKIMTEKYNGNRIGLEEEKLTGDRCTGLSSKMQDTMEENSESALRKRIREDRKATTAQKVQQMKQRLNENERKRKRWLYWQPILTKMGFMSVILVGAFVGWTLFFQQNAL
pIC50: −log10 of the molar value.
OBSERVABLE: pIC50

pIC50 for TCPTP (Homo sapiens, UniProt P17706) with input Cc1c(F)c(N)cc(C(=O)Nc2cc(-n3cc(C(=O)N4CCN(C)CC4)nn3)c(F)cc2N2C[C@@H](C)N(C)[C@@H](C)C2)c1Cl equals < 6.00

---

TEST: Liver S9 stability assay
Assay type: in vitro ADME, mouse
CONDITIONS USED: Mouse liver S9, 1 μM, 5 mM GSH, 37° C.
OBSERVABLE: % Remaining after 60 min incubation (%)
// return numeric value only (unit: %, not printed)

The cases that follow already have their % Remaining after 60 min incubation on record.
COMPOUND STRUCTURE: C[C@H]1CN(c2cc(F)c(-c3cnc(N4CCOCC4)nc3)cc2Nc2ncnc(Cl)c2N)CCN1C
% Remaining after 60 min incubation, %: 93.4
--
COMPOUND STRUCTURE: C[C@@H]1CN(c2ncc(-c3cc(Nc4ncnc(Cl)c4N)c(N4CCN(C)[C@@H](C)C4)cc3F)cn2)C[C@H](C)O1
% Remaining after 60 min incubation, %: 71.5
--
COMPOUND STRUCTURE: CCN(CC)C(=O)c1cn(-c2cc(NC(=O)c3cc(N)c(F)c(C)c3Cl)c(N3C[C@@H](C)N(C)[C@@H](C)C3)cc2F)nn1
% Remaining after 60 min incubation, %: 87.7

Here's the next entry for you.
What the record says about Cc1c(F)c(N)cc(C(=O)Nc2cc(-n3cc(C(=O)N4CCN(C)CC4)nn3)c(F)cc2N2C[C@@H](C)N(C)[C@@H](C)C2)c1Cl : % Remaining after 60 min incubation is 110

---

TEST: Compound formulation stability assay
Format: physicochemical
CONDITIONS USED: 10 mg/mL in 10% DMSO/10% solutol HS 15/80% water, 2-8° C., Day 0
OBSERVABLE: Formulation Appearance (Day 0)

COMPOUND STRUCTURE: CCN(CC)C(=O)c1cn(-c2cc(NC(=O)c3cc(N)c(F)c(C)c3Cl)c(N3C[C@@H](C)N(C)[C@@H](C)C3)cc2F)nn1
READOUT VALUE: clear

COMPOUND STRUCTURE: C[C@@H]1CN(c2ncc(-c3cc(Nc4ncnc(Cl)c4N)c(N4CCN(C)[C@@H](C)C4)cc3F)cn2)C[C@H](C)O1
READOUT VALUE: clear solution

COMPOUND STRUCTURE: C[C@H]1CN(c2cc(F)c(-c3cnc(N4CCOCC4)nc3)cc2Nc2ncnc(Cl)c2N)CCN1C
READOUT VALUE: clear solution

COMPOUND STRUCTURE: Cc1c(F)c(N)cc(C(=O)Nc2cc(-n3cc(C(=O)N4CCN(C)CC4)nn3)c(F)cc2N2C[C@@H](C)N(C)[C@@H](C)C2)c1Cl
READOUT VALUE: clear solution

---

TEST: PK profile of HBI-2375 in plasma, brain and CSF in SD rats
Type: in vivo
CONDITIONS USED: both sexes, rat; SD rats, single PO 40 mg/kg, brain, mean of male and female
OBSERVABLE: MRT last (h)
// return numeric value only (unit: h, not printed)

What the record says about Cc1c(F)c(N)cc(C(=O)Nc2cc(-n3cc(C(=O)N4CCN(C)CC4)nn3)c(F)cc2N2C[C@@H](C)N(C)[C@@H](C)C2)c1Cl [HYBI-084] : MRT last is 6.4

---

TEST: PK profile of HBI-2375 in plasma and brain in C57BL/6J mice
Format: in vivo
CONDITIONS USED: female, C57BL/6J, mouse, brain, po, 80 mg/kg, mice, repeat PO 80 mg/kg, female; read-out: AUClast Ratio Brain/Plasma
Experimental: EXAMPLE 4: PK profile of compound of Formula (IIIb) (HBI-2375, HYBI-84) in plasma and brain in C57BL/6J mice: This study was conducted in accordance with the Study Protocol and Pharmaron (Ningbo) TSP's Standard Operating Procedures (SOPs) following all regulatory protocols. This study was conducted under non-GLP environment. […]
OBSERVABLE: Kp
Field format: numeric only.

What the record says about Cc1c(F)c(N)cc(C(=O)Nc2cc(-n3cc(C(=O)N4CCN(C)CC4)nn3)c(F)cc2N2C[C@@H](C)N(C)[C@@H](C)C2)c1Cl [HYBI-084] : Kp is 0.588

---

ASSAYED SYSTEM: ATX (Homo sapiens)
OBSERVABLE: IC50

IC50 for ATX (Homo sapiens) with input Cc1c(F)c(N)cc(C(=O)Nc2cc(-n3cc(C(=O)N4CCN(C)CC4)nn3)c(F)cc2N2C[C@@H](C)N(C)[C@@H](C)C2)c1Cl equals > 1000 nM

---

ASSAYED SYSTEM: UniProtKB P21589
Sequence (P21589 27-549, species assumed): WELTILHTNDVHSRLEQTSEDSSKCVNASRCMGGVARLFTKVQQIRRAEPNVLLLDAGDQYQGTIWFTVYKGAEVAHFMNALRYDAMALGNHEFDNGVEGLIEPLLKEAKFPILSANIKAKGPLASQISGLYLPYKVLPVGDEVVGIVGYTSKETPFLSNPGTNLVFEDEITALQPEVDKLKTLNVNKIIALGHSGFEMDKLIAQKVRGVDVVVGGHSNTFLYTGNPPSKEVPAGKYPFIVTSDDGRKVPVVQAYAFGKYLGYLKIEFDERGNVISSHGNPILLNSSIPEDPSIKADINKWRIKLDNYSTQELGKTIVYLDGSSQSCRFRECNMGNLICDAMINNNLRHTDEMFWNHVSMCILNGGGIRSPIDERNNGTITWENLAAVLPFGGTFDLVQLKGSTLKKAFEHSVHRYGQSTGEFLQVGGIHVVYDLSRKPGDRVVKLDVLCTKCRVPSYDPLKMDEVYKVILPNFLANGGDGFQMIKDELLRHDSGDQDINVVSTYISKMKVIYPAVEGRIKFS
OBSERVABLE: IC50

What the record says about Cc1c(F)c(N)cc(C(=O)Nc2cc(-n3cc(C(=O)N4CCN(C)CC4)nn3)c(F)cc2N2C[C@@H](C)N(C)[C@@H](C)C2)c1Cl : IC50 is > 1000 nM

---

TEST: Compound formulation stability assay
Assay type: physicochemical
CONDITIONS USED: 10 mg/mL in 10% DMSO/10% solutol HS 15/80% water, 2-8° C., Day 4

COMPOUND STRUCTURE: CCN(CC)C(=O)c1cn(-c2cc(NC(=O)c3cc(N)c(F)c(C)c3Cl)c(N3C[C@@H](C)N(C)[C@@H](C)C3)cc2F)nn1
Formulation Appearance (Day 4): clear
//
COMPOUND STRUCTURE: C[C@H]1CN(c2cc(F)c(-c3cnc(N4CCOCC4)nc3)cc2Nc2ncnc(Cl)c2N)CCN1C
Formulation Appearance (Day 4): clear solution
//
COMPOUND STRUCTURE: Cc1c(F)c(N)cc(C(=O)Nc2cc(-n3cc(C(=O)N4CCN(C)CC4)nn3)c(F)cc2N2C[C@@H](C)N(C)[C@@H](C)C2)c1Cl
Formulation Appearance (Day 4): clear solution
//
COMPOUND STRUCTURE: C[C@@H]1CN(c2ncc(-c3cc(Nc4ncnc(Cl)c4N)c(N4CCN(C)[C@@H](C)C4)cc3F)cn2)C[C@H](C)O1
Formulation Appearance (Day 4): clear solution

---

TEST: PK profile of HBI-2375 in plasma, brain and CSF in SD rats
Type: in vivo
CONDITIONS USED: Sprague-Dawley, rat; SD rats, single PO 40 mg/kg, plasma, female
OBSERVABLE: MRT last (h)
// return numeric value only (unit: h, not printed)

What the record says about Cc1c(F)c(N)cc(C(=O)Nc2cc(-n3cc(C(=O)N4CCN(C)CC4)nn3)c(F)cc2N2C[C@@H](C)N(C)[C@@H](C)C2)c1Cl [HYBI-084] : MRT last is 5.11

---

TEST: PK profile of HBI-2375 in plasma, brain and CSF in SD rats
Format: in vivo
CONDITIONS USED: Sprague-Dawley, rat; SD rats, single PO 40 mg/kg, brain, female
OBSERVABLE: Cmax (ng/g)
// return numeric value only (unit: ng/g, not printed)

What the record says about Cc1c(F)c(N)cc(C(=O)Nc2cc(-n3cc(C(=O)N4CCN(C)CC4)nn3)c(F)cc2N2C[C@@H](C)N(C)[C@@H](C)C2)c1Cl : Cmax is 833
